src = patent US11168073B2

# target: recombinant human MAO-B (monoamine oxidase-B) (Homo sapiens, UniProt P27338)
# Construct: purchased Sigma-Aldrich
# Sequence (P27338 1-520): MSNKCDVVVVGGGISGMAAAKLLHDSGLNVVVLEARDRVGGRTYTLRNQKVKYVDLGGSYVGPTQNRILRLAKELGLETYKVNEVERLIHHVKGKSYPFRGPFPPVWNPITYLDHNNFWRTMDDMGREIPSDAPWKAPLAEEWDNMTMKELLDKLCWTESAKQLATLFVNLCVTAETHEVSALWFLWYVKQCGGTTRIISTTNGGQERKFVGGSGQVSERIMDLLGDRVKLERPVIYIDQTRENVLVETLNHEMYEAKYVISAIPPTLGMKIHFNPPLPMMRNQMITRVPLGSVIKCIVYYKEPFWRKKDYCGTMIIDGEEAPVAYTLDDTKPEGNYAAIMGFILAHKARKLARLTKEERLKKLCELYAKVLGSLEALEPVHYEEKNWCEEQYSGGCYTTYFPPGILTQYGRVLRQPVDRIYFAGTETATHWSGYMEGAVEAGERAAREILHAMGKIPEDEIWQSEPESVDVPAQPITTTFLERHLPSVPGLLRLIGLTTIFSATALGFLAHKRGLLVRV
# assay: Activity evaluation on recombinant human MAO-B (Amplex Red/HRP-coupled assay, 1 mM benzylamine substrate)
# Type: biochemical
# run_conditions: 1 mM benzylamine substrate, read-out: Inhibitory Activity (IC50, nM) MAO-B
Structures can show the parent of a compound that is named as a salt.
reported_property: IC50 (nM)
One number for each entry, in nM.

Some solved entries appear below for comparison.
NCC(Cn1ncn(Cc2cc(-c3ccc4c(c3)COC(=O)N4)cs2)c1=O)=C(F)F [Example 191, Trifluoroacetate] : 44000
NCC(Cn1ncn(Cc2cccc(-c3ccc4c(c3)OCO4)c2)c1=O)=C(F)F [Example 274, Trifluoroacetate] : 125
Cc1cc(-c2ccc(N3CCOCC3)cc2)cnc1-n1cnn(CC(CN)=C(F)F)c1=O [Example 237, Trifluoroacetate] : 84000

Next item in the queue.
Which IC50 is reported with recombinant human MAO-B (monoamine oxidase-B) (Homo sapiens, UniProt P27338) for this entry: CS(=O)(=O)c1ccc(-c2ccc3cc(Cn4cnn(CC(CN)=C(F)F)c4=O)sc3c2)cc1 [Example 197, trifluoroacetate] ?
18000
